Value source: patent US8546442B2

Study system: CCR1 (Homo sapiens, UniProt P32246)
Sequence (P32246 whole entry): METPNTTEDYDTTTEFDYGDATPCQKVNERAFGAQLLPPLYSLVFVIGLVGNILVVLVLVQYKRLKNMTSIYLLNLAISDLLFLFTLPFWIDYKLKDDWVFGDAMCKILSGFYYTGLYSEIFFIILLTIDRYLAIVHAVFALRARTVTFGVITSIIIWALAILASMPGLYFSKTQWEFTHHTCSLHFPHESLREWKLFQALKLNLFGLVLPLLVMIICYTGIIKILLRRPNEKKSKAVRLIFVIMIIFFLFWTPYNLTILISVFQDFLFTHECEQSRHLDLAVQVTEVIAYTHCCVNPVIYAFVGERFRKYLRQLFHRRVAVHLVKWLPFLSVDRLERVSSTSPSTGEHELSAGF
Assay details: calcium flux in CCR1 transfected cells, Method B (Calcium 4 dye, HAMAMATSU FDSS6000)
Format: cell-based
Condition notes: cells stably expressing recombinant CCR1 and G-alpha-16, MIP-1alpha at EC80
Reported property: IC50
Quote the value and follow it with the unit of measurement.

# Compound, Measured
data = [
    ("O=C(NCc1cc(Cl)cc(Cl)c1)N1CCCc2c1cnn2-c1ccc(F)cc1 [Example 40]", "3 nM"),
    ("O=C(NCc1ccc(Br)cc1)N1CCCc2c1cnn2-c1ccc(F)cc1 [Example 37]", "40 nM"),
    ("CCC[C@H](NC(=O)N1CC(C)Cc2c1cnn2-c1ccc(F)cc1)c1ccnc(S(C)(=O)=O)c1 (some centres unmarked) [Example 102]", "0.6 nM"),
    ("CCC[C@H](NC(=O)N1c2cnn(-c3ccc(F)cc3)c2CCC1C(F)(F)F)c1ccc(OC)c(Br)c1 (some centres unmarked) [Example 97]", "5 nM"),
    ("CC[C@H](NC(=O)N1CCCc2c1cnn2-c1ccc(F)cc1)c1ccc(S(C)(=O)=O)nc1 [Example 51]", "3 nM"),
]

# input Return IC50 (reported value) for this compound: COCCNS(=O)(=O)c1ccc(CNC(=O)N2CCCc3c2cnn3-c2ccc(F)cc2)cc1 [Example 26]
# output 4 nM

# input Give recorded IC50. CCC[C@H](NC(=O)N1c2cnn(-c3ccc(Cl)cc3)c2CCC1C)c1ccnc(S(C)(=O)=O)c1 (some centres unmarked) [Example 93]
# output 18 nM

# input Quickly give me recorded IC50 for O=C(NCc1cccc(C(F)(F)F)c1)N1CCCc2c1cnn2-c1ccc(F)cc1 [Example 21]
# output 1 nM
